- System Name: Dual specificity tyrosine-phosphorylation-regulated kinase 1A (Homo sapiens, UniProt Q13627)
Recorded IC50 by entry

| Molecule | IC50 |
| --- | --- |
| CC(C)c1nnc2ccc(-c3ocnc3-c3ccccc3)cn12 | > 10 µM |
| CC(C)c1nnc2ccc(-c3c[nH]nc3-c3cc(F)ccc3F)cn12 | > 10 µM |
| CC(C)c1nnc2ccc(-c3ocnc3-c3ccc(F)cc3Cl)cn12 | > 10 µM |
| CC(C)(C)c1nnc2ccc(-c3ocnc3-c3ccc(F)cc3F)cn12 | > 10 µM |
| CC(C)c1nnc2ccc(-c3ocnc3-c3cc(F)c(F)cc3F)cn12 | > 10 µM |
| CCNc1nnc2ccc(-c3ocnc3-c3ccc(F)cc3)cn12 | > 10 µM |
| CC(C)(C)c1nnc2ccc(-c3ocnc3-c3cc(F)c(F)cc3F)cn12 | > 10 µM |

meta.source: ChEMBL document CHEMBL1145312
